- METHOD_NOTES: APR_HepG2_StressKinase_72hr: Apredica 72-hour HepG2 Assay for Stress Kinase (AID 2282921)
- CONDITION_SET: HepG2 stress kinase (phospho-c-Jun) imaging, actives raise or lower the signal
The source made the active and inactive calls. How the source made its calls: active means hit-call score of the fitted dose curve at least 0.9, where 1 is the maximum; inactive means score below 0.9.
Reply using exactly one outcome from t (active), f (inactive)

Some entries whose results are on file:
CC(C)CCCCCCCOC(=O)CCCCC(=O)OCCCCCCCC(C)C	f
O=C(O)CCN(C1(C(=O)NO)CCCC1)S(=O)(=O)c1ccc(Oc2ccc(F)cc2)cc1	f
CCOCCO	f
CC[C@H](C)C(=O)O[C@H]1C[C@@H](C)C=C2C=C[C@H](C)[C@H](CC[C@@H]3C[C@@H](O)CC(=O)O3)[C@H]21	f
CC(C)CC(C)(O)C#CC(C)(O)CC(C)C (stereo not given)	f

Q. // param item: `COCCOCCOCCOC` ; yields the recorded call
A. f

Q. Hi, do you know how `CC(=O)c1ccc2c(c1)[C@H](NC(=O)c1ccc(F)cc1)[C@@H](O)C(C)(C)O2` came out in this test?
A. f

Q. // outcome(item) with item = `NC(=O)NO`
A. f

Q. Could you please tell me the result logged for `CC(=O)OCCC(C)C` in this assay?
A. f

Q. State the result this test recorded for O=c1n(CC2CO2)c(=O)n(CC2CO2)c(=O)n1CC1CO1 (stereo not given) .
A. f

----------
- TESTED_ON: human Phosphodiesterase 10 (PDE10), PDE10A (gene 10846)
- METHOD_NOTES: NVS_ENZ_hPDE10: NovaScreen (NVS) Enzymatic Assay for human Phosphodiesterase 10 (PDE10) (AID 2283195)
Inconclusive results are not listed. The source made the active and inactive calls. The calls were made as follows: active = hit-call score of the fitted dose curve at least 0.9, where 1 is the maximum; inconclusive = response in the unintended direction; inactive = score below 0.9.
Respond using exactly one of the listed classes: 1.0 (active), 0.0 (inactive)

Cn1c(=O)cc(Oc2ccc(F)cc2F)c2cnc(NCC(C)(C)O)nc21	1.0
Nc1nc2ncc(CNc3ccc(C(=O)N[C@@H](CCC(=O)O)C(=O)O)cc3)nc2c(=O)[nH]1	0.0
O=C(O)c1cccc(Oc2ccccc2)c1	0.0

# ---- query molecule ----
Q. Given `CC[C@H]1CC[C@H](NCc2cc3c(cc2OC)[C@H]2C[C@H]2C(=O)N3C)[C@H](c2ccccc2)N1` , state the outcome it received in this test.
A. 0.0

----------
- Read-out: Phosphatase and tensin (PTEN), PTEN (gene 5728)
- METHOD_NOTES: LTEA_HepaRG_PTEN: Life Technologies and Expression Analysis (LTEA) Assay for Phosphatase and tensin (PTEN) using HepaRG (AID 2283523)
- CONDITION_SET: mRNA level, 48 h; actives raise or lower the signal
The source made the active and inactive calls. Rule for the calls: active = hit-call score of the fitted dose curve at least 0.9, where 1 is the maximum; inactive = score below 0.9.
The reply should be one of these categories: class 1 (active), class 0 (inactive)

Check out these entries, answers already filled in.
O=C(O)CCN(C1(C(=O)NO)CCCC1)S(=O)(=O)c1ccc(Oc2ccc(F)cc2)cc1	class 0
O=C(OC[C@H]1O[C@@H](OC(=O)c2cc(O)c(O)c(OC(=O)c3cc(O)c(O)c(O)c3)c2)[C@H](OC(=O)c2cc(O)c(O)c(OC(=O)c3cc(O)c(O)c(O)c3)c2)[C@@H](OC(=O)c2cc(O)c(O)c(OC(=O)c3cc(O)c(O)c(O)c3)c2)[C@@H]1OC(=O)c1cc(O)c(O)c(OC(=O)c2cc(O)c(O)c(O)c2)c1)c1cc(O)c(O)c(OC(=O)c2cc(O)c(O)c(O)c2)c1	class 0
CC1=CC(=O)CC(C)(C)C1	class 0
CC(C)=CCCC(C)=CC=O	class 0
Cn1c(=O)c2c(ncn2C)n(C)c1=O	class 0
CCCC(=O)OCC	class 0
CC[C@H](C)C(=O)O[C@H]1C[C@@H](C)C=C2C=C[C@H](C)[C@H](CC[C@@H]3C[C@@H](O)CC(=O)O3)[C@H]21	class 0
CNCc1ccc(NC(=O)c2c[nH]c3c2C(=O)CCC3)cc1	class 0

Q. Assay outcome for `CCCN(C1CCN(C(=O)C2CCNCC2)CC1)[C@@H]1CCc2ccc(OC)cc2C1` : what was it?
A. class 0

Q. Given `O=C(O)c1cccc(N(Cc2cccnc2)c2ccc(OC(F)F)c(OC(F)F)c2)c1` , state the outcome it received in this test.
A. class 0

Q. I would be grateful if you could indicate the recorded call for `CCCCCCCCCCCCCCCO` .
A. class 0

Q. Please indicate how the test categorized O=c1n(CC2CO2)c(=O)n(CC2CO2)c(=O)n1CC1CO1 (centres undefined) .
A. class 0

Q. Could you check what this test reported for `C=CCCCCCCCCC(=O)O` ?
A. class 1
